Every entry's value here was drawn from the Immune Epitope Database (IEDB).

# assayed_system: HLA-B*35:01
# test: IEDB peptide-MHC binding, purified MHC/competitive/radioactivity; bounds were set here for any values at or beyond the usual limits of such assays
# protocol_conditions: source organism: Human immunodeficiency virus 1
outcome_measure: pIC50
Numbers only, as −log10 of the molar value.

Known results for sequences:
biopolymer_sequence: FPVRPQVPT
assayed_system: HLA-B*35:01
outcome_measure: pIC50
observed: 7.59
--
biopolymer_sequence: FPVRPQVPI
assayed_system: HLA-B*35:01
outcome_measure: pIC50
observed: 6.93

Give one value of pIC50 per listed sequence.
1. FPVRPQVPM
2. FPVRPQVPQ
3. FAVRPQVPL

### Response
7.89
6.40
6.83

###

# assayed_system: HLA-B*54:01
# test: IEDB peptide-MHC binding, purified MHC/competitive/radioactivity; filed as Kd, often an IC50 or EC50 that approximates it; bounds were set here for any values at or beyond the usual limits of such assays
# protocol_conditions: source organism: Homo sapiens
outcome_measure: Kd

Known results for sequences:
biopolymer_sequence: HPEDTGQVF
observed: ≥ 25 µM
//
biopolymer_sequence: IPLYRNGDF
observed: ≥ 25 µM
//
biopolymer_sequence: FPPEGVSIW
observed: 3.85 µM
//
biopolymer_sequence: LPTNASLSF
observed: ≥ 25 µM
//
biopolymer_sequence: IPEPEGPDA
observed: ≥ 5 µM
//
biopolymer_sequence: SPSCPLERF
observed: ≥ 25 µM

Give one value of Kd per listed sequence.
1. SPATLLLVL
2. CPLERFAEL

### Response
12.5 µM
1 µM

###

# assayed_system: HLA-B*51:01
# test: IEDB peptide-MHC binding, purified MHC/competitive/radioactivity; bounds were set here for any values at or beyond the usual limits of such assays
# protocol_conditions: source organism: Human T-cell lymphotrophic virus type 1 (Caribbean isolate)
outcome_measure: IC50 (nM)
One number for each entry, in nM.

### Prompt Return reported IC50; argument: WPLLPHVIF
### Response 262

###

# assayed_system: HLA-B*07:02
# test: IEDB peptide-MHC binding, purified MHC/competitive/radioactivity; filed as Kd, often an IC50 or EC50 that approximates it; bounds were set here for any values at or beyond the usual limits of such assays
# protocol_conditions: source organism: Hepatitis C virus (isolate Taiwan)
outcome_measure: pKd
Answers are plain numbers, as −log10 of the molar value.

biopolymer_sequence: FPYLVAYQA
observed: 4.74

### Prompt Return reported pKd; argument: YPCTVNFTI
### Response 4.97

###

# assayed_system: HLA-B*51:01
# test: IEDB peptide-MHC binding, purified MHC/competitive/radioactivity; bounds were set here for any values at or beyond the usual limits of such assays
# protocol_conditions: source organism: Homo sapiens
pIC50: −log10 of the molar value.
Use 8 as the dividing line for pIC50, with the line itself on the yes side and lower values as no.

The following sequences have reported results that may help.
biopolymer_sequence: SPATLLLVL
label: no
//
biopolymer_sequence: LPQPPICTI
label: yes
//
biopolymer_sequence: TPAEVSIVV
label: no
//
biopolymer_sequence: LPSIPVHPI
label: no
//
biopolymer_sequence: MPREDAHFI
label: yes

Turning now to a further record.
### Prompt Confirm if pIC50 reported for the sequence VPLAHSSSA is 8 or above.
### Response no
